target: MuLV RT (Moloney murine leukemia virus, UniProt P03355 660-1330); assay: primer extension with trap; 6 mM Mg2+; Primer extension: 50 mM Tris-HCl pH 8.0, 80 mM KCl, 6 mM MgCl2, 1 mM DTT, 0.1 mg/ml BSA, room temperature, 1 nM duplex; filter binding: Tris-HCl pH 8.0, 80 mM K
pKd: −log10 of the molar value.
pKd for assorted binders
Readout Label: pKd

>>> observed("MuLV R14-2 (dsDNA) DNA 1: GCCTGCAGGTCGACTCTAGACACCAGGACATGATGGCAGGA DNA 2: ATCTTCCTGCCATCATGTCCTGGTGTCTAGAGTCGACCTGCAGGC")
7.11
>>> observed("MuLV R14-3 (dsDNA) DNA 1: GCCTGCAGGTCGACTCTAGAGAGATGTAGCGCATGAAGGTA DNA 2: CTTCTACCTTCATGCGCTACATCTCTCTAGAGTCGACCTGCAGGC")
7.28
>>> observed("HIV DNA PPT (41/45) (dsDNA) DNA 1: GCCTGCAGGTCGACTCTAGACTTTTTAAAAGAAAAGGGGGG DNA 2: CAGTCCCCCCTTTTCTTTTAAAAAGTCTAGAGTCGACCTGCAGGC")
8.12
>>> observed("TY3 DNA PPT (dsDNA) DNA 1: GCCTGCAGGTCGACTCTAGAGACAACCCTGAGAGAGAGGAA DNA 2: CATCTTCCTCTCTCTCAGGGTTGTCTCTAGAGTCGACCTGCAGGC")
7.34
>>> observed("AMV DNA PPT (dsDNA) DNA 1: GCCTGCAGGTCGACTCTAGAGCTTTTGCATAGGGAGGGGGA DNA 2: CATTTCCCCCTCCCTATGCAAAAGCTCTAGAGTCGACCTGCAGGC")
7.77
>>> observed("MuLV R14-1 (dsDNA) DNA 1: GCCTGCAGGTCGACTCTAGAATAAGGAAGATCTGCGGGGGG DNA 2: CTTTCCCCCCGCAGATCTTCCTTATTCTAGAGTCGACCTGCAGGC")
8.09
>>> observed("MuLV DNA PPT (dsDNA) DNA 1: GCCTGCAGGTCGACTCTAGATAGTCTCCAGAAAAAGGGGGG DNA 2: CATTCCCCCCTTTTTCTGGAGACTATCTAGAGTCGACCTGCAGGC")
7.92
